The reported measurements were obtained from paper PMC4336329.

Give hERG current change (%, negative = inhibition) at 10uM for every item shown.
Tested Target: human ether-à-go-go-related gene (hERG) potassium channel (human, UniProt Q12809);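 further: peak tail current of the secondary pulse compared with the same well before compound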
Sequence (Q12809 whole entry, looked up): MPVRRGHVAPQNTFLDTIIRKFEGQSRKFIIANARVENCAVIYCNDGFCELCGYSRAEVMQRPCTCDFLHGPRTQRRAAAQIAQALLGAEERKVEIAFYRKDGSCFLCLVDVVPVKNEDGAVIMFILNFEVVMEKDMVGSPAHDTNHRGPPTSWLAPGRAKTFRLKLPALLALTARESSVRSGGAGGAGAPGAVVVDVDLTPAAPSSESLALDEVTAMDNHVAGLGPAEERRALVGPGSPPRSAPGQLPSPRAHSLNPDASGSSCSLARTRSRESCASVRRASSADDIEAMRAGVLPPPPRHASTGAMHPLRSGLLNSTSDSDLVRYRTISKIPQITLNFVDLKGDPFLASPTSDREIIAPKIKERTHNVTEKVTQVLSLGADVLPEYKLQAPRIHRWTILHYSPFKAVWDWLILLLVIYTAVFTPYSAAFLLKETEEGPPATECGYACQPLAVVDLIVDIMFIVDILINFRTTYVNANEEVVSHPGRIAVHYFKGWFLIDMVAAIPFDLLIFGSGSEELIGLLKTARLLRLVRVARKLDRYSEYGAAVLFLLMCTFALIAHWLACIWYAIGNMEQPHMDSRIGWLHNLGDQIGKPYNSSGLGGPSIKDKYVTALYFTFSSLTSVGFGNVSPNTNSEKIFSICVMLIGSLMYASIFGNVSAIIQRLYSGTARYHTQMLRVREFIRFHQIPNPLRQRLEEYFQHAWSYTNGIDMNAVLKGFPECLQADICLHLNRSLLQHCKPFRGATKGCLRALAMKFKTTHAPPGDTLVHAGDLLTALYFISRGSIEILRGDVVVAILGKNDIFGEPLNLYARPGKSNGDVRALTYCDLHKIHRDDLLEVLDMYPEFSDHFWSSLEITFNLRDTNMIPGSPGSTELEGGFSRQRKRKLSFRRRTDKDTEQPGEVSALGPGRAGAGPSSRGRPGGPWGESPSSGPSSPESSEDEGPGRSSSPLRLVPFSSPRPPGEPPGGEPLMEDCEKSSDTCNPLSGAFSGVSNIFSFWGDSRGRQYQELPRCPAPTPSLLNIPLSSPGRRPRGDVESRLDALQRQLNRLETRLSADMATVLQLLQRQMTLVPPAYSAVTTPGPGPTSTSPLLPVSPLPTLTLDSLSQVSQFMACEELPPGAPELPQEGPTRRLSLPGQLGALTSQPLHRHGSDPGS
Test Description: primary screen, population patch clamp on CHO cells stably expressing hERG; higher = less effect of the substance
In all, about 310,000 compounds went through this assay and about 14,000 (4.5%) showed an effect of 50% or more. The effect is printed as a negative number. The full list was thinned out, with strong results kept by preference.
Lab book: enter the figure in %, no units written.

Q: Dear colleague, I am looking for the recorded hERG current change (%, negative = inhibition) at 10uM of the following compound: BrC(/C=C\c1ccccc1)=N/Nc1nc(N2CCOCC2)nc(N2CCOCC2)n1
A: -39

Q: Dear colleague, I am looking for the recorded hERG current change (%, negative = inhibition) at 10uM of the following compound: CSc1nnc2n(C)c3c(c(=O)n12)C1(CCCC1)Cc1ccccc1-3
A: 2.33

Q: Dear colleague, I am looking for the recorded hERG current change (%, negative = inhibition) at 10uM of the following compound: COC(=O)c1cc2c(=O)n3ccccc3nc2n(Cc2cccnc2)c1=N
A: -64

Q: Dear colleague, I am looking for the recorded hERG current change (%, negative = inhibition) at 10uM of the following compound: Cc1nc2c(-c3ccc(F)cc3)c(C)nn2c(C)c1CCC(=O)NC(C)CCc1ccco1 (centres unmarked)
A: -68.8

Q: Dear colleague, I am looking for the recorded hERG current change (%, negative = inhibition) at 10uM of the following compound: CCN1C(=O)CC(C(=O)Nc2ccc(F)cc2)SC1=Nc1ccc2c(c1)OCO2 (centres unmarked)
A: -13.5

Q: Dear colleague, I am looking for the recorded hERG current change (%, negative = inhibition) at 10uM of the following compound: Cc1ccc(S(=O)(=O)c2c(N)n(CCCO)c3nc4ccccc4nc23)cc1
A: -21.4

Q: Dear colleague, I am looking for the recorded hERG current change (%, negative = inhibition) at 10uM of the following compound: Cl.c1ccc2c(c1)oc1c(NCCCN3CCOCC3)ncnc12
A: -22.4

Q: Dear colleague, I am looking for the recorded hERG current change (%, negative = inhibition) at 10uM of the following compound: COc1ccccc1C1CCN(Cc2cccc([N+](=O)[O-])c2)CC1
A: -49.1

Q: Dear colleague, I am looking for the recorded hERG current change (%, negative = inhibition) at 10uM of the following compound: COC(=O)c1cn(Cc2cccnc2)c(=O)c2ccccc12
A: 3.15

Q: Dear colleague, I am looking for the recorded hERG current change (%, negative = inhibition) at 10uM of the following compound: Cc1[nH]c2ccccc2c1C(c1ccncc1)N1CCN(c2ccccn2)CC1 (centres unmarked)
A: 8.61

Q: Dear colleague, I am looking for the recorded hERG current change (%, negative = inhibition) at 10uM of the following compound: COc1ccccc1C1CCN(Cc2cccc3ccccc23)CC1
A: -13.9

Q: Dear colleague, I am looking for the recorded hERG current change (%, negative = inhibition) at 10uM of the following compound: CN1CCN(c2ccc(C(N)=O)cc2[N+](=O)[O-])CC1
A: 7.57

Q: Dear colleague, I am looking for the recorded hERG current change (%, negative = inhibition) at 10uM of the following compound: O=C(Nc1ccc(Br)cc1)C1C2C=CC3(O2)C1C(=O)N(CCN1CCCCC1)C3C(=O)NC1CCCCC1 (centres unmarked)
A: -59.8

Q: Dear colleague, I am looking for the recorded hERG current change (%, negative = inhibition) at 10uM of the following compound: Cl.c1ccc2c(c1)oc1c(Nc3ccc(CN4CCOCC4)cc3)ncnc12
A: -62

Q: Dear colleague, I am looking for the recorded hERG current change (%, negative = inhibition) at 10uM of the following compound: O=C(Nc1ccc(Cl)c(Cl)c1)C1C2C=CC3(O2)C1C(=O)N(CCN1CCCCC1)C3C(=O)NC1CCCCC1 (centres unmarked)
A: -60.8

Q: Dear colleague, I am looking for the recorded hERG current change (%, negative = inhibition) at 10uM of the following compound: Cc1nc2c(-c3ccccc3)c(C)nn2c(C)c1CCC(=O)NCc1ccco1
A: -29.9

Q: Dear colleague, I am looking for the recorded hERG current change (%, negative = inhibition) at 10uM of the following compound: CN(C)CCCn1c(N)c(S(=O)(=O)c2ccccc2)c2nc3ccccc3nc21
A: -51.1

Q: Dear colleague, I am looking for the recorded hERG current change (%, negative = inhibition) at 10uM of the following compound: Cc1nc2ccccn2c1C(=O)NCc1cccnc1
A: -3.36

Q: Dear colleague, I am looking for the recorded hERG current change (%, negative = inhibition) at 10uM of the following compound: COc1ccccc1C1CCN(Cc2ccc(Cl)c(Cl)c2)CC1
A: 12.3

Q: Dear colleague, I am looking for the recorded hERG current change (%, negative = inhibition) at 10uM of the following compound: COc1ccccc1C1CCN(Cc2ccc(Cl)cc2Cl)CC1
A: 11.1

Q: Dear colleague, I am looking for the recorded hERG current change (%, negative = inhibition) at 10uM of the following compound: N=c1c(C(=O)NCc2ccc(F)cc2)cc2c(=O)n3ccccc3nc2n1Cc1cccnc1
A: -76.2

Q: Dear colleague, I am looking for the recorded hERG current change (%, negative = inhibition) at 10uM of the following compound: Cc1ccc(C(=O)c2ccc(N3CCN(C)CC3)c([N+](=O)[O-])c2)cc1
A: -68.8

Q: Dear colleague, I am looking for the recorded hERG current change (%, negative = inhibition) at 10uM of the following compound: Cc1nc2c(-c3ccc(F)cc3)c(C)nn2c(C)c1CCC(=O)Nc1ccccc1
A: 0.666

Q: Dear colleague, I am looking for the recorded hERG current change (%, negative = inhibition) at 10uM of the following compound: Cl.c1ccc2c(c1)oc1c(NCCN3CCOCC3)ncnc12
A: -5.4

Q: Dear colleague, I am looking for the recorded hERG current change (%, negative = inhibition) at 10uM of the following compound: CC(=O)Nc1ccc(Nc2nc(C)nc3c2oc2ccccc23)cc1
A: 13.4

Q: Dear colleague, I am looking for the recorded hERG current change (%, negative = inhibition) at 10uM of the following compound: Cc1nc2c(-c3ccccc3)c(C)nn2c(C)c1CCC(=O)NC(C)CCc1ccco1 (centres unmarked)
A: -66.6

Q: Dear colleague, I am looking for the recorded hERG current change (%, negative = inhibition) at 10uM of the following compound: O=C(Nc1ccc(Cl)cc1)C1C2C=CC3(O2)C1C(=O)N(CCN1CCCCC1)C3C(=O)NC1CCCCC1 (centres unmarked)
A: -44.1

Q: Dear colleague, I am looking for the recorded hERG current change (%, negative = inhibition) at 10uM of the following compound: CCCCn1c(N)c(S(=O)(=O)c2ccc(C)cc2)c2nc3ccccc3nc21
A: -0.298

Q: Dear colleague, I am looking for the recorded hERG current change (%, negative = inhibition) at 10uM of the following compound: CC(C)c1ccc(/C=N/NC(=O)c2cccc(S(=O)(=O)N3CCOCC3)c2)cc1
A: 10.1

Q: Dear colleague, I am looking for the recorded hERG current change (%, negative = inhibition) at 10uM of the following compound: Cc1[nH]c2ccccc2c1CN1CCN(c2ccccn2)CC1
A: -52.7

Q: Dear colleague, I am looking for the recorded hERG current change (%, negative = inhibition) at 10uM of the following compound: COc1ccc(CCNC(=O)CCCCC(=O)NCCc2ccc(OC)c(OC)c2)cc1OC
A: 4.7

Q: Dear colleague, I am looking for the recorded hERG current change (%, negative = inhibition) at 10uM of the following compound: Cc1ccc(NC(=O)C2C3C=CC4(O3)C2C(=O)N(CCCN2CCCCC2)C4C(=O)NC2CCCCC2)cc1Cl (centres unmarked)
A: 16.3

Q: Dear colleague, I am looking for the recorded hERG current change (%, negative = inhibition) at 10uM of the following compound: CCC(=O)N1c2ccc(S(=O)(=O)NCCc3ccc(OC)c(OC)c3)cc2CC1C (centres unmarked)
A: 10.3

Q: Dear colleague, I am looking for the recorded hERG current change (%, negative = inhibition) at 10uM of the following compound: Cc1[nH]c2ccccc2c1CN1CCc2ccccc2C1
A: -12.9

Q: Dear colleague, I am looking for the recorded hERG current change (%, negative = inhibition) at 10uM of the following compound: COc1ccccc1C1CCN(Cc2ccccc2)CC1
A: -34.5

Q: Dear colleague, I am looking for the recorded hERG current change (%, negative = inhibition) at 10uM of the following compound: O=C(Nc1ccc(Br)cc1)C1C2C=CC3(O2)C1C(=O)N(CCN1CCOCC1)C3C(=O)NC1CCCCC1 (centres unmarked)
A: -3.6

Q: Dear colleague, I am looking for the recorded hERG current change (%, negative = inhibition) at 10uM of the following compound: Cc1ccc(OC(=O)c2ccc(N3CCOCC3)c([N+](=O)[O-])c2)cc1
A: -4.31

Q: Dear colleague, I am looking for the recorded hERG current change (%, negative = inhibition) at 10uM of the following compound: CCCn1c(=N)c(S(=O)(=O)c2ccc(F)cc2)cc2c(=O)n3ccccc3nc21
A: -8.53
